Target: Mineralocorticoid receptor (Homo sapiens)
Sequence (P08235 whole entry): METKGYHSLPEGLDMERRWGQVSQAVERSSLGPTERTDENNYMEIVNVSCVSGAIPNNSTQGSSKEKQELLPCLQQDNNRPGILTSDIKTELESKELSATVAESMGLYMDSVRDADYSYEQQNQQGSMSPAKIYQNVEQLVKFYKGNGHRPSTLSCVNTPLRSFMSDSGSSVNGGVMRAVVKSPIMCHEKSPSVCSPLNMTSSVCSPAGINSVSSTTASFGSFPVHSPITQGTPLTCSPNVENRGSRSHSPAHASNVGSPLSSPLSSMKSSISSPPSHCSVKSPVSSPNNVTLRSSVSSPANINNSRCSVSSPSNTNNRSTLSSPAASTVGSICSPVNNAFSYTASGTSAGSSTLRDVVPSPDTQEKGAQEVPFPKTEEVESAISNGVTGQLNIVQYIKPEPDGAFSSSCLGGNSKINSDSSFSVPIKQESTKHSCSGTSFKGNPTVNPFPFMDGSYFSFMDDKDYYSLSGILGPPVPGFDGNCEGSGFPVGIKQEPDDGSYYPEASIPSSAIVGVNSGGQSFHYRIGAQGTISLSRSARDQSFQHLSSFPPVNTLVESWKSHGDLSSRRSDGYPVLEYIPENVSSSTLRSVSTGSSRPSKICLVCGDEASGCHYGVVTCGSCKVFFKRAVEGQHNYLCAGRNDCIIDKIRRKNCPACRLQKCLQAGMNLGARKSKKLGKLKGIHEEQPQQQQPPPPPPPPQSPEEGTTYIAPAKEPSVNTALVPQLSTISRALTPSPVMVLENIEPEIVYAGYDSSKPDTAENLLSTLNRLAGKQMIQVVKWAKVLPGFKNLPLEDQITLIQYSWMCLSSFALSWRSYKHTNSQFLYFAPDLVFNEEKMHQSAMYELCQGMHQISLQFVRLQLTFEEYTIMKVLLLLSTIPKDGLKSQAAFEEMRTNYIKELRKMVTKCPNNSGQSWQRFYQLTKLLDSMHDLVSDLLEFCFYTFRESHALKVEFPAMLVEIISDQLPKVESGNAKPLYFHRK
Assay: Displacement of TAMRA labeled dexamethasone at human mineralocorticoid receptor in insect cell
In plain terms, low IC50, meaning strictly below 500 nM, gives MET, and everything else gives NOT MET.

Decide: IC50 of COc1ccc(F)cc1C(C)(C)CC(O)(CCc1ccccc1)C(F)(F)F (centres undefined) strictly below 500 nM? NOT MET

Decide: IC50 of COc1ccc(F)cc1C(C)(C)CC(O)(Cc1ccc(C#N)cc1Cl)C(F)(F)F (centres undefined) strictly below 500 nM? MET

Decide: IC50 of COc1ccc(F)cc1C(C)(C)CC(O)(Cc1ccccc1C)C(F)(F)F (centres undefined) strictly below 500 nM? NOT MET

Decide: IC50 of COc1ccc(F)cc1C(C)(C)CC(O)(Cc1ccc(C)c2ccccc12)C(F)(F)F (centres undefined) strictly below 500 nM? NOT MET

Decide: IC50 of COc1ccc(F)cc1C(C)(C)CC(O)(Cc1cc(C)c(C#N)c(C)c1)C(F)(F)F (centres undefined) strictly below 500 nM? MET

Decide: IC50 of COc1ccc(F)cc1C(C)(C)CC(O)(c1ccccc1)C(F)(F)F (centres undefined) strictly below 500 nM? NOT MET

Decide: IC50 of COc1ccc(F)cc1C(C)(C)CC(O)(Cc1ccc(Cl)cc1)C(F)(F)F (centres undefined) strictly below 500 nM? NOT MET

Decide: IC50 of COc1ccc(F)cc1C(C)(C)CC(O)(Cc1ccccc1)C(F)(F)F (centres undefined) strictly below 500 nM? NOT MET

Decide: IC50 of COc1ccc(F)cc1C(C)(C)CC(O)(Cc1cccc(C)c1)C(F)(F)F (centres undefined) strictly below 500 nM? NOT MET

Decide: IC50 of COc1ccc(F)cc1C(C)(C)CC(O)(Cc1cccc2ccccc12)C(F)(F)F (centres undefined) strictly below 500 nM? NOT MET

Decide: IC50 of COc1ccc(F)cc1C(C)(C)CC(O)(Cc1ccc(C=O)cc1Cl)C(F)(F)F (centres undefined) strictly below 500 nM? MET

Decide: IC50 of COc1ccc(F)cc1C(C)(C)CC(O)(Cc1ccc2ccccc2c1)C(F)(F)F (centres undefined) strictly below 500 nM? NOT MET

Decide: IC50 of COc1ccc(F)cc1C(C)(C)CC(O)(Cc1ccc(C=O)cc1)C(F)(F)F (centres undefined) strictly below 500 nM? NOT MET

Decide: IC50 of COc1ccc(F)cc1C(C)(C)CC(O)(Cc1cccc(Cl)c1Cl)C(F)(F)F (centres undefined) strictly below 500 nM? NOT MET

Decide: IC50 of COc1ccc(F)cc1C(C)(C)CC(O)(Cc1ccc(C)cc1)C(F)(F)F (centres undefined) strictly below 500 nM? NOT MET

Decide: IC50 of COc1ccc(F)cc1C(C)(C)CC(O)(CCCc1ccccc1)C(F)(F)F (centres undefined) strictly below 500 nM? NOT MET

Decide: IC50 of COc1ccc(F)cc1C(C)(C)CC(O)(Cc1ccccc1Br)C(F)(F)F (centres undefined) strictly below 500 nM? NOT MET

Decide: IC50 of COc1ccc(F)cc1C(C)(C)CC(O)(Cc1ccc(C#N)c2ccccc12)C(F)(F)F (centres undefined) strictly below 500 nM? MET

Decide: IC50 of COc1ccc(F)cc1C(C)(C)CC(O)(Cc1cc(C)cc(C)c1C#N)C(F)(F)F (centres undefined) strictly below 500 nM? MET

Decide: IC50 of COc1ccc(F)cc1C(C)(C)CC(O)(Cc1cc(Cl)ccc1Cl)C(F)(F)F (centres undefined) strictly below 500 nM? NOT MET

Decide: IC50 of COc1ccc(F)cc1C(C)(C)CC(O)(Cc1c(Cl)cccc1Cl)C(F)(F)F (centres undefined) strictly below 500 nM? NOT MET

Decide: IC50 of COc1ccc(F)cc1C(C)(C)CC(O)(Cc1ccc(Cl)cc1Cl)C(F)(F)F (centres undefined) strictly below 500 nM? NOT MET

Decide: IC50 of COc1ccc(F)cc1C(C)(C)CC(O)(Cc1ccccc1Cl)C(F)(F)F (centres undefined) strictly below 500 nM? NOT MET

Decide: IC50 of COc1ccc(F)cc1C(C)(C)CC(O)(Cc1cccc(C#N)c1)C(F)(F)F (centres undefined) strictly below 500 nM? MET

Decide: IC50 of COc1ccc(F)cc1C(C)(C)CC(O)(Cc1cc(C)cc(Cl)c1)C(F)(F)F (centres undefined) strictly below 500 nM? NOT MET

Decide: IC50 of COc1ccc(F)cc1C(C)(C)CC(O)(Cc1ccccc1F)C(F)(F)F (centres undefined) strictly below 500 nM? NOT MET

Decide: IC50 of COc1ccc(F)cc1C(C)(C)CC(O)(Cc1cc(Cl)cc(C#N)c1)C(F)(F)F (centres undefined) strictly below 500 nM? NOT MET

Decide: IC50 of COc1ccc(F)cc1C(C)(C)CC(O)(Cc1cc(C)cc(C)c1)C(F)(F)F (centres undefined) strictly below 500 nM? MET

Decide: IC50 of COc1ccc(F)cc1C(C)(C)CC(O)(Cc1c(C)ccc2ccccc12)C(F)(F)F (centres undefined) strictly below 500 nM? MET

Decide: IC50 of COc1ccc(F)cc1C(C)(C)CC(O)(Cc1cccc(Cl)c1)C(F)(F)F (centres undefined) strictly below 500 nM? NOT MET

Decide: IC50 of COc1ccc(F)cc1C(C)(C)CC(O)(Cc1cc(Cl)cc(Cl)c1)C(F)(F)F (centres undefined) strictly below 500 nM? NOT MET

Decide: IC50 of COc1ccc(CC(O)(CC(C)(C)c2cc(F)ccc2OC)C(F)(F)F)cc1 (centres undefined) strictly below 500 nM? NOT MET
